Test system: skin fibroblast cell line BJ
Assay: Toxicity to non-tumor fibroblasts BJ
Format: cell-based, human
Measured parameter: IC50 (µM)
Reply with just the number (in µM).

stdin: Tell me the measured IC50 of `Cc1cc(C)n2c1C=C1C=CC(N)=[N+]1[B-]2(F)F` , please.
stdout: 49.7

###

Tested on: CCRF‐CEM (acute lymphoblastic leukemia)
Test: Cytotoxic activity against CCRF-CEM
Format: cell-based
Conditions: Homo sapiens, average of at least three independent experiments
Measured parameter: IC50 (µM)
Reply with just the number (in µM).

stdin: Tell me the measured IC50 of Cc1cc(C)n2c1C=C1C=CC(NC(=O)OCCCN3C(=O)CC(SCC(NC(=O)c4ccc5c(=O)c(O)c(-c6cc(Cl)c(N)c(Cl)c6)[nH]c5c4)C(N)=O)C3=O)=[N+]1[B-]2(F)F (stereo not drawn) , please.
stdout: 12.7

stdin: And Cc1cc(C)n2c1C=C1C=CC(NC(=O)OCCSSCC(NC(=O)c3ccc4c(=O)c(O)c(-c5ccc(F)cc5)[nH]c4c3)C(N)=O)=[N+]1[B-]2(F)F (stereo not drawn) ?
stdout: 8.14
